- ASSAYED SYSTEM: UniProtKB P42336
- Sequence (P42336 whole entry): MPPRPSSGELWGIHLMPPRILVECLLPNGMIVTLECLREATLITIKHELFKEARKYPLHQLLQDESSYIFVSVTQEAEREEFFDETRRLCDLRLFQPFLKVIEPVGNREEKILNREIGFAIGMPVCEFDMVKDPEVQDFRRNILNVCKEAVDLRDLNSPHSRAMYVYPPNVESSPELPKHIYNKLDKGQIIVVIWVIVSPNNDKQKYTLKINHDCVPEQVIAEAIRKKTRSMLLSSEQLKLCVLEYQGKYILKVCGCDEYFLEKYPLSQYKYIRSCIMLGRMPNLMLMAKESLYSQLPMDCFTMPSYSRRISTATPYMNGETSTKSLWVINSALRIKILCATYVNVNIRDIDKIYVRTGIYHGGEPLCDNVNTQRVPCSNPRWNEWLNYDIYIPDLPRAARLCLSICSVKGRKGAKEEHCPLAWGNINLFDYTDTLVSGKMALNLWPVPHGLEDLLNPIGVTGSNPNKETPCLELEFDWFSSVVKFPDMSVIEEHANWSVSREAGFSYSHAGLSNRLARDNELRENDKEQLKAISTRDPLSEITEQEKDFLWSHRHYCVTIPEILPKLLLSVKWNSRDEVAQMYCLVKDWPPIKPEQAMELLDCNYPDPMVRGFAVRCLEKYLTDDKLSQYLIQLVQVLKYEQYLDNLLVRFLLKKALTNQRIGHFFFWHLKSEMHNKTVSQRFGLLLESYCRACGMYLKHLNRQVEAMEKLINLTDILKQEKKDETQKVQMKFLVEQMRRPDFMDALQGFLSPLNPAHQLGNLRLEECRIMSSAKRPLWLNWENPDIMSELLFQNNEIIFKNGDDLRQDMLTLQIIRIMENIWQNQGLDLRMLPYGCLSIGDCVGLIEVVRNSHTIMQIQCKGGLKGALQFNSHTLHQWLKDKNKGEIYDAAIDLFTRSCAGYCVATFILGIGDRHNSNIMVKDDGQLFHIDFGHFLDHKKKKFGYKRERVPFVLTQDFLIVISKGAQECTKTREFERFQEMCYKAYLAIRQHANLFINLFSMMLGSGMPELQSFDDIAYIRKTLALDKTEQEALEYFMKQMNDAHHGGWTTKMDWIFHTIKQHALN
- ASSAY REMARKS: PI3K enzyme inhibitory activity in the cell free assay (ADP-Glo Kinase Assay)
- STUDY CONDITIONS: human recombinant PI3Kα, ATP 50 μM; read-out: PI3K alpha inhibition
pIC50: −log10 of the molar value. Counter-ions that a name gives are not always drawn.
PROPERTY: pIC50

Ask: # lookup: pIC50 of CC(c1oc(=O)c2ccccc2c1C1=CCN(C2CNC2)CC1)n1nc(-c2cc(O)cc(F)c2)c2c(N)ncnc21 (stereo not drawn) [Example 156, dihydrochloride]
Result: < 6.00

Ask: # lookup: pIC50 of CC(c1oc(=O)c2ccccc2c1C1=CCN(C)CC1)n1nc(-c2cc(O)cc(Cl)c2)c2c(N)ncnc21 (stereo not drawn) [Example 154, formate]
Result: < 6.00

Ask: # lookup: pIC50 of CC(c1oc(=O)c2ccccc2c1-c1ccccn1)n1nc(-c2cc(O)cc(F)c2)c2c(N)ncnc21 (stereo not drawn) [Example 170, hydrochloride]
Result: 6.00 to 8.00

Ask: # lookup: pIC50 of CC(c1oc(=O)c2ccccc2c1-c1cccc(CN2CCN(C)CC2)c1)n1nc(-c2cc(O)cc(F)c2)c2c(N)ncnc21 (stereo not drawn)
Result: < 6.00

Ask: # lookup: pIC50 of CC(C)N1CCC=C(c2c(C(C)n3nc(-c4cc(O)cc(F)c4)c4c(N)ncnc43)oc(=O)c3ccccc23)C1 (stereo not drawn) [Example 174, hydrochloride]
Result: 6.00 to 8.00

Ask: # lookup: pIC50 of CC(c1oc(=O)c2ccccc2c1-c1cccc(C(=O)NCCN(C)C)c1)n1nc(-c2cc(O)cc(F)c2)c2c(N)ncnc21 (stereo not drawn) [Example 70, hydrochloride]
Result: < 6.00

* * *

- ASSAYED SYSTEM: PI3Kγ (Homo sapiens, UniProt P48736)
- Sequence (P48736 whole entry): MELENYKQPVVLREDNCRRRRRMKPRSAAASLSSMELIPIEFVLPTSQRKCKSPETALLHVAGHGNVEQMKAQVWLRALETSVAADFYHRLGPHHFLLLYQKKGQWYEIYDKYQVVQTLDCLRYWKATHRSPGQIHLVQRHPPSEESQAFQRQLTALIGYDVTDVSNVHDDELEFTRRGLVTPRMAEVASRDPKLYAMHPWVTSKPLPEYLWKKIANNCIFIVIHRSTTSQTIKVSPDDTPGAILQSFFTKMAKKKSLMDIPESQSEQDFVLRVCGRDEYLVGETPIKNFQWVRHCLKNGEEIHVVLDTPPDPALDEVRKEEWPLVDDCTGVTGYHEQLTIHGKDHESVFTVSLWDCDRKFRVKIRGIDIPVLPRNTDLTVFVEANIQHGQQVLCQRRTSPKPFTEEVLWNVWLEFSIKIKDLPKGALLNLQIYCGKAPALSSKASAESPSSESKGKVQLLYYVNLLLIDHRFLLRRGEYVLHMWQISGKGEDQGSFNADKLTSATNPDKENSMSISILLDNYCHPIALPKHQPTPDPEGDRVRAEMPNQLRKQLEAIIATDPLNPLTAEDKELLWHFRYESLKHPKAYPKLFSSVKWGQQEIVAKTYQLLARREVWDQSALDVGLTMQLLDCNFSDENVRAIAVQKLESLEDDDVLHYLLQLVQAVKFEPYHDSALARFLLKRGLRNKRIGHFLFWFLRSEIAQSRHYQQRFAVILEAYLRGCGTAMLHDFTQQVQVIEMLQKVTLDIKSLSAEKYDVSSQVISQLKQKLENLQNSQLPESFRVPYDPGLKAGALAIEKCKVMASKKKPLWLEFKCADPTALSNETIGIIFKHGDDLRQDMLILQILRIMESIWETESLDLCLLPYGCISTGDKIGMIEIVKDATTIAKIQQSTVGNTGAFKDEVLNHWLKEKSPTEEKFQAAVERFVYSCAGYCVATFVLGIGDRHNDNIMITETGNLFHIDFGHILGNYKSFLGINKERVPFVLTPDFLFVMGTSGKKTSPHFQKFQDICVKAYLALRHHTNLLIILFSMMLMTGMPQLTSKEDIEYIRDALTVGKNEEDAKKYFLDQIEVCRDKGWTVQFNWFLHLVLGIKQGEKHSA
- ASSAY REMARKS: PI3K enzyme inhibitory activity in the cell free assay (ADP-Glo Kinase Assay)
- STUDY CONDITIONS: human recombinant PI3Kγ, ATP 30 μM; read-out: PI3K gamma inhibition
Where a name gives a salt, the structure may show the parent alone.
Assignment: determine reported IC50 for the given molecules.

Ask: # lookup: IC50 of CC(c1oc(=O)c2ccccc2c1C1=CCN(C(=O)C2CCN(C)CC2)CC1)n1nc(-c2cc(O)cc(F)c2)c2c(N)ncnc21 (stereo not drawn) [Example 148, formate]
Result: 10 to 1000 nM

Ask: # lookup: IC50 of CC(c1oc(=O)c2ccccc2c1C1=CCCN(C2CNC2)C1)n1nc(-c2cc(O)cc(F)c2)c2c(N)ncnc21 (stereo not drawn) [Example 173, dihydrochloride]
Result: 10 to 1000 nM

Ask: # lookup: IC50 of CC(c1oc(=O)c2ccccc2c1-c1ccc(CN2CCNCC2)cc1)n1nc(-c2cc(O)cc(F)c2)c2c(N)ncnc21 (stereo not drawn) [Example 125, dihydrochloride]
Result: > 1000 nM

Ask: # lookup: IC50 of CC(c1oc(=O)c2ccccc2c1C1=CC2CCC(C1)N2C)n1nc(-c2cc(O)cc(F)c2)c2c(N)ncnc21 (stereo not drawn) [Example 92, hydrochloride]
Result: > 1000 nM

Ask: # lookup: IC50 of CC(c1oc(=O)c2ccccc2c1-c1ccccc1)n1nc2ncnc(N)c2c1-c1cc(O)cc(F)c1 (stereo not drawn)
Result: > 1000 nM

Ask: # lookup: IC50 of O=c1oc(CNc2ncnc3[nH]cnc23)c(-c2ccccc2F)c2ccccc12
Result: 10 to 1000 nM

Ask: # lookup: IC50 of CC(NC(=O)c1c(N)nn2cccnc12)c1oc(=O)c2ccccc2c1-c1ccccc1 (stereo not drawn)
Result: 10 to 1000 nM

Ask: # lookup: IC50 of CC(c1oc(=O)c2ccccc2c1-c1ccccc1)n1nc(-c2cncc(N)c2)c2c(N)ncnc21 (stereo not drawn) [Example 88, hydrochloride]
Result: > 1000 nM

Ask: # lookup: IC50 of CC(c1oc(=O)c2ccccc2c1C1=CCC(N)CC1)n1nc(-c2cc(O)cc(F)c2)c2c(N)ncnc21 (stereo not drawn) [Example 103, hydrochloride]
Result: > 1000 nM

Ask: # lookup: IC50 of CC(Nc1ncnc(N)c1C#N)c1oc(=O)c2ccccc2c1-c1cn[nH]c1 (stereo not drawn) [Example 123, hydrochloride]
Result: 10 to 1000 nM

Ask: # lookup: IC50 of CC(C)N1CCC=C(c2c(C(C)n3nc(-c4cc(O)cc(F)c4)c4c(N)ncnc43)oc(=O)c3ccccc23)C1 (stereo not drawn) [Example 174, hydrochloride]
Result: 10 to 1000 nM

Ask: # lookup: IC50 of CC(Nc1ncnc2[nH]cnc12)c1oc(=O)c2ccccc2c1-c1cnc(N)nc1 (stereo not drawn)
Result: > 1000 nM

Ask: # lookup: IC50 of CC(c1oc(=O)c2ccccc2c1-c1cnc(N)s1)n1nc(-c2cc(O)cc(F)c2)c2c(N)ncnc21 (stereo not drawn) [Example 121, hydrochloride]
Result: 10 to 1000 nM

Ask: # lookup: IC50 of Cc1cccc(-c2c(C(C)n3nc(I)c4c(N)ncnc43)oc(=O)c3ccccc23)c1 (stereo not drawn)
Result: 10 to 1000 nM

Ask: # lookup: IC50 of CC(c1oc(=O)c2ccccc2c1C1=CCN(C(=O)CN(C)C)CC1)n1nc(-c2cc(O)cc(F)c2)c2c(N)ncnc21 (stereo not drawn) [Example 147, formate]
Result: 10 to 1000 nM

Ask: # lookup: IC50 of CC(c1oc(=O)c2ccccc2c1-c1cccc(CN2CCN(C)CC2)c1)n1nc(-c2cc(O)cc(F)c2)c2c(N)ncnc21 (stereo not drawn)
Result: > 1000 nM

Ask: # lookup: IC50 of CC(c1oc(=O)c2ccccc2c1-c1ccc(CN2CCN(C)CC2)cc1)n1nc(-c2cc(O)cc(F)c2)c2c(N)ncnc21 (stereo not drawn) [Example 139, dihydrochloride]
Result: > 1000 nM

Ask: # lookup: IC50 of CC(c1oc(=O)c2ccccc2c1C1=CCN(CC2CC2)CC1)n1nc(-c2cc(O)cc(F)c2)c2c(N)ncnc21 (stereo not drawn) [Example 66, hydrochloride]
Result: 10 to 1000 nM

Ask: # lookup: IC50 of CCC(Nc1ncnc2[nH]cnc12)c1oc(=O)c2ccccc2c1-c1ccccc1 (stereo not drawn)
Result: 10 to 1000 nM

Ask: # lookup: IC50 of CC(c1oc(=O)c2ccccc2c1C1=CCN(C2CNC2)CC1)n1nc(-c2cc(O)cc(F)c2)c2c(N)ncnc21 (stereo not drawn) [Example 156, dihydrochloride]
Result: 10 to 1000 nM

Ask: # lookup: IC50 of Nc1ncnc2c1c(-c1ccc(O)c(F)c1)nn2Cc1oc(=O)c2ccccc2c1-c1ccccc1
Result: 10 to 1000 nM

Ask: # lookup: IC50 of CC(c1oc(=O)c2ccccc2c1-c1ccccc1)n1nc(C(F)(F)F)c2c(N)ncnc21 (stereo not drawn)
Result: > 1000 nM

Ask: # lookup: IC50 of CC(c1oc(=O)c2ccccc2c1C1=CCNCC1)n1nc(-c2cc(O)cc(C(F)(F)F)c2)c2c(N)ncnc21 (stereo not drawn) [Example 153, formate]
Result: > 1000 nM

Ask: # lookup: IC50 of CC(Nc1ncnc2[nH]cnc12)c1oc(=O)c2ccccc2c1-c1cncs1 (stereo not drawn)
Result: 10 to 1000 nM

Ask: # lookup: IC50 of Nc1ncnc2c1c(-c1ccc3[nH]ncc3c1)nn2Cc1oc(=O)c2ccccc2c1-c1ccccc1
Result: 10 to 1000 nM

Ask: # lookup: IC50 of CC(Nc1ncnc2[nH]cnc12)c1oc(=O)c2ccccc2c1-c1cn[nH]c1 (stereo not drawn)
Result: 10 to 1000 nM

Ask: # lookup: IC50 of Nc1ncnc2c1c(-c1cc(O)cc(F)c1)nn2CC1=C(c2ccccc2)c2ccccc2CO1
Result: 10 to 1000 nM
